Please provide measured pIC50 for the entries that follow.
Tested System: human TLR9 (Homo sapiens)
Sequence (Q9NR96 26-1032): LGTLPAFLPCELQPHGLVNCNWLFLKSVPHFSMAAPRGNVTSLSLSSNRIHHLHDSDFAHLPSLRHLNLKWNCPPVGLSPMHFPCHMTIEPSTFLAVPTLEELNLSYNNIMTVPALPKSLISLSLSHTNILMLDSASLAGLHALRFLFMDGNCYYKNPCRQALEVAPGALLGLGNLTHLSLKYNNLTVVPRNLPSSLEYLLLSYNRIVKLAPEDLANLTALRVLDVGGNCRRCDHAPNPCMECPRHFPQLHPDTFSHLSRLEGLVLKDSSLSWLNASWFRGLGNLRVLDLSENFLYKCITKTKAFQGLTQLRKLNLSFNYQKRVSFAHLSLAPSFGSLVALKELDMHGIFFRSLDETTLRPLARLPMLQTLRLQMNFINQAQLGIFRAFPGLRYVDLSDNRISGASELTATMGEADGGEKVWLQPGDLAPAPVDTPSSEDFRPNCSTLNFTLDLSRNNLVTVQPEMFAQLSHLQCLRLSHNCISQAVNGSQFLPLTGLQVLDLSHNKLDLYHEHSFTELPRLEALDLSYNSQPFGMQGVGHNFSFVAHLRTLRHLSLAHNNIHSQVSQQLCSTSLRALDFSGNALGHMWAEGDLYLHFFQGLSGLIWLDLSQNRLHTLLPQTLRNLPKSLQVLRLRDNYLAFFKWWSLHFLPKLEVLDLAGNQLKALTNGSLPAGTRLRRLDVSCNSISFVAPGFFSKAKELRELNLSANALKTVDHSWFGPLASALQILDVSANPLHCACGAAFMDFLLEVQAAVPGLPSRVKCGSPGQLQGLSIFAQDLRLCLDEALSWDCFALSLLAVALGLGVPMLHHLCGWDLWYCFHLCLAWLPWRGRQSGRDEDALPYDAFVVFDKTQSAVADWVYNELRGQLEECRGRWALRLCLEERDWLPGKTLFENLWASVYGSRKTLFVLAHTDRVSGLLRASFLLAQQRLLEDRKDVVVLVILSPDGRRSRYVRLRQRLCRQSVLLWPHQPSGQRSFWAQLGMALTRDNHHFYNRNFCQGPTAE
Assay: TLR9 inhibition reporter assay (HEK-Blue cells, SEAP reporter, ODN2006 stimulation)
Recorded Conditions: HEK-Blue cells overexpressing human TLR9, SEAP reporter, ODN2006 5 nM
pIC50: −log10 of the molar value.

Compound: Cc1c(-c2[nH]c3sc(C4CCC(NC5COC5)CC4)nc3c2C(C)C)cn(C)c(=O)c1C (single isomer, unassigned) [Example 241]
pIC50: < 4.30
--
Compound: COc1cc(-c2[nH]c3sc(C4CCC(N5CCC6(CC5)COC6)CC4)nc3c2C(C)C)cn2ncnc12 (single isomer, unassigned) [Example 112]
pIC50: < 4.30
--
Compound: Cc1c(-c2[nH]c3sc(C4CCC(NCC(C)(C)O)CC4)nc3c2C(C)C)cn(C)c(=O)c1C (single isomer, unassigned) [Example 252]
pIC50: < 4.30

Look at each compound and report its pIC50.
1. Cc1c(-c2[nH]c3sc(N4CCC(N)CC4)nc3c2C(C)C)cn2ncnc2c1C
2. Cc1c(-c2[nH]c3sc(N4CCN(CC5(C)COC5)CC4)nc3c2C(C)C)cn2ncnc2c1C
3. Cc1c(-c2[nH]c3sc(C4CCC(N5CCNC(=O)C5)CC4)nc3c2C(C)C)cn(C)c(=O)c1C (single isomer, unassigned) [Example 260]

1: 4.89; 2: 4.71; 3: < 4.30

###

Tested System: human TLR8 (Homo sapiens, UniProt Q9NR97)
Construct: host or cells: HEK-Blue cells
Sequence (Q9NR97 27-1041): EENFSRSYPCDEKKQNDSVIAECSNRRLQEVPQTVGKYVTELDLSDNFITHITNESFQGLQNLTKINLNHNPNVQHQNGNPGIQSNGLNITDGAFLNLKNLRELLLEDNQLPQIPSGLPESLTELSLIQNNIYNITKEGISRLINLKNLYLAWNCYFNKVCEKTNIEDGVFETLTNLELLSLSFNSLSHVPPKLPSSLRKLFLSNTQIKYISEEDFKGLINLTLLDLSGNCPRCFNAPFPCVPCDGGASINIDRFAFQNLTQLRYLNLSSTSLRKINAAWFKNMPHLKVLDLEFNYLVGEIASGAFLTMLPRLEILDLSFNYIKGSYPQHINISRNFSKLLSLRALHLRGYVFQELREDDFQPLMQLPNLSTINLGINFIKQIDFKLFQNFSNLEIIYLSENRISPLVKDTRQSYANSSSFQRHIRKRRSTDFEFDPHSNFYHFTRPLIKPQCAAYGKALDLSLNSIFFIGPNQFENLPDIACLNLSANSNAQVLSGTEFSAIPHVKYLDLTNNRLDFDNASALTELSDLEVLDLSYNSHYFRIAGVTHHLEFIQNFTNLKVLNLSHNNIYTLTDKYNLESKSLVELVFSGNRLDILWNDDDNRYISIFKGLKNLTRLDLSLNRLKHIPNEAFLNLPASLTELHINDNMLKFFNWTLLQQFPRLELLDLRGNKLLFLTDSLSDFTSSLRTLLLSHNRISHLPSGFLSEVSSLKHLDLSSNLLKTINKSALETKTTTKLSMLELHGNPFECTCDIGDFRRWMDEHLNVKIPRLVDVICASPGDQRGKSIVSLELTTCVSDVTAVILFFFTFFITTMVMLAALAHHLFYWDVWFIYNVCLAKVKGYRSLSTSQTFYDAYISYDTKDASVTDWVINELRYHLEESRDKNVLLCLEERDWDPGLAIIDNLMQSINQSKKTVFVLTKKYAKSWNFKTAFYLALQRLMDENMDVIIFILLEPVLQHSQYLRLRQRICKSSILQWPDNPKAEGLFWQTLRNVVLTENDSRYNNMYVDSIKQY
Assay: TLR8 inhibition reporter assay (HEK-Blue cells, SEAP reporter, R848 stimulation)
Type: cell-based
Recorded Conditions: HEK-Blue cells overexpressing human TLR8, SEAP reporter, R848 15.9 μM; read-out: TLR8 IC50
Excerpt: TLR7/8/9 Inhibition Reporter Assays HEK-Blue™-cells (Invivogen) overexpressing human TLR7, TLR8 or TLR9 receptors were used for screening inhibitors of these receptors using an inducible SEAP (secreted embryonic alkaline phosphatase) reporter gene under the control of the IFN-β minimal promoter fused to five NF-κB and AP-1-binding sites. […]
pIC50: −log10 of the molar value.
Everything with pIC50 lower than 8 is false; everything else, including exactly 8, is true.

Examples with answers:
Compound: COc1cc(-c2[nH]c3sc(C4CCC(N5CCNC(=O)C5)CC4)nc3c2C)cn2ncnc12 (single isomer, unassigned) [Example 276]
Group: false
//
Compound: Cc1cc2ncnn2cc1-c1[nH]c2sc(C3CCC(NC4COC4)CC3)nc2c1C(C)C (single isomer, unassigned) [Example 152]
Group: false
//
Compound: Cc1c(-c2[nH]c3sc(C4CCC(NC(C)C)CC4)nc3c2C(C)C)cn2ncnc2c1C (single isomer, unassigned) [Example 194]
Group: true
//
Compound: CC(C)c1c(-c2cn(C)c3ncccc23)[nH]c2sc(C3CCN(C(C)C)CC3)nc12 [Example 36]
Group: false
//
Compound: Cc1cc(-c2[nH]c3sc(C4CCC(NC56CC(C5)C6)CC4)nc3c2C(C)C)cn2ncnc12 (single isomer, unassigned) [Example 139]
Group: false

Please check the record Cc1c(-c2[nH]c3sc(N4CC5(CN(CCS(C)(=O)=O)C5)C4)nc3c2C(C)C)cn2ncnc2c1C [Example 304] and state if its pIC50 is at or above 8.
false

Does pIC50 meet or surpass 8 for COc1cc(-c2[nH]c3sc(C4CCC(N5CC6(COC6)C5)CC4)nc3c2C(C)C)cn2ncnc12 (single isomer, unassigned) [Example 68] ?
true

Has COc1cc(-c2[nH]c3sc(C4CCC(N(C)C5COC5)CC4)nc3c2C(C)C)cn2ncnc12 (single isomer, unassigned) [Example 125] a recorded pIC50 greater than or equal to 8?
false

Please indicate if the recorded pIC50 for CCN(C)C1CCC(c2nc3c(C(C)C)c(-c4cn5ncnc5c(C)c4C)[nH]c3s2)CC1 (single isomer, unassigned) [Example 191] meets or exceeds 8.
true

Determine whether this compound has pIC50 no lower than 8: Cc1cc(-c2[nH]c3sc(C(=O)N4CCCC4)nc3c2C(C)C)cn2ncnc12 [Example 393]
false

Assess whether reported pIC50 for COc1cc(-c2[nH]c3sc(C4CCC(N5[C@@H]6CC[C@H]5COC6)CC4)nc3c2C(C)C)cn2ncnc12 (single isomer, unassigned) [Example 104] sits at 8 or higher.
true

Source of measurements: patent US20230139171A1
